Quick list: IC50 per entry.
- target desc: CB1 (mutant) (Homo sapiens, UniProt P21554)
- Sequence (P21554 1-417, change not shown): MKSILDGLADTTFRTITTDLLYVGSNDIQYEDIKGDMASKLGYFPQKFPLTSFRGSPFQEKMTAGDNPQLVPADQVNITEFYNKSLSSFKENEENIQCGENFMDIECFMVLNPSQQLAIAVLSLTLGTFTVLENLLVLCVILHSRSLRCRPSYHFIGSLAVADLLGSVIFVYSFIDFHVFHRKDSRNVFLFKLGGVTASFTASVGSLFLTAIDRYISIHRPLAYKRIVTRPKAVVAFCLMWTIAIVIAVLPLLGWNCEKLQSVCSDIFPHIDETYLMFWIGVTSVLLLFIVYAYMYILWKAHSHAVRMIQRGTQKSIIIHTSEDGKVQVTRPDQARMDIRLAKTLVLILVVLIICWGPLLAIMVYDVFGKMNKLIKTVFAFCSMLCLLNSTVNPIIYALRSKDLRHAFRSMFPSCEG
- test summary: R-SAT functional receptor assay, CB1 (mutant, truncated after amino acid 417)
- Type: cell-based
- setup conditions: Appendix A; R-SAT CB1; receptor form (mutant or wild-type) not stated; read-out: pIC50 (converted)

molecule: CCOCCNC(=O)c1ccc2c(c1)N=C(c1ccc(Cl)cc1)c1ccccc1S2 [drawing 604]
target desc: CB1 (mutant) (Homo sapiens, UniProt P21554)
IC50: 50.1 nM

molecule: O=C(NN1CCCCC1)c1ccc2c(c1)N=C(c1ccccc1Cl)c1ccccc1S2
target desc: CB1 (mutant) (Homo sapiens, UniProt P21554)
IC50: 501 nM

molecule: O=C(NN1CCCCCC1)c1ccc2c(c1)N=C(c1ccc(Cl)cc1F)c1ccccc1S2 [drawing 867]
target desc: CB1 (mutant) (Homo sapiens, UniProt P21554)
IC50: 15.8 nM

molecule: O=C(NCc1cccnc1)c1ccc2c(c1)N=C(NCc1ccc(Cl)cc1)c1ccccc1S2
target desc: CB1 (mutant) (Homo sapiens, UniProt P21554)
IC50: 501 nM

molecule: Cc1csc(CNC(=O)c2ccc3c(c2)N=C(c2cccc(F)c2)c2ccccc2S3)c1 [drawing 557]
target desc: CB1 (mutant) (Homo sapiens, UniProt P21554)
IC50: 2.51 nM

molecule: O=C(NCCC(F)(F)F)c1ccc2c(c1)N=C(c1ccc(Cl)s1)c1ccccc1S2 [drawing 663]
target desc: CB1 (mutant) (Homo sapiens, UniProt P21554)
IC50: 6.31 nM

molecule: CCOC(=O)N1CCC(NC(=O)c2ccc3c(c2)N=C(c2ccc(Cl)cc2)c2ccccc2S3)CC1 [drawing 1101]
target desc: CB1 (mutant) (Homo sapiens, UniProt P21554)
IC50: 31.6 nM

molecule: Cc1ccsc1C1=Nc2cc(C(=O)NCCCC(F)(F)F)ccc2Sc2ccccc21 [drawing 599]
target desc: CB1 (mutant) (Homo sapiens, UniProt P21554)
IC50: 3.98 nM

----------
- target desc: CB1 (mutant) (Homo sapiens)
- test summary: R-SAT functional receptor assay, CB1 (mutant, truncated after amino acid 417)
- Type: cell-based
- setup conditions: Appendix A; R-SAT CB1; receptor form (mutant or wild-type) not stated; read-out: pIC50 (converted)
quantity: log10 IC50 (log10 of the value in nM)

compound: CCCC1=Nc2cc(C(=O)NCCCN3CCN(C)CC3)ccc2Sc2ccccc21
quantity: log10 IC50
number: 3.40
--
compound: CCCNC(=O)c1ccc2c(c1)N=C(c1sccc1C)c1ccccc1S2 [drawing 927]
quantity: log10 IC50
number: 1.20
--
compound: CC(NC(=O)c1ccc2c(c1)N=C(c1ccccc1F)c1ccccc1S2)c1ccccc1 (centres unmarked) [drawing 748]
quantity: log10 IC50
number: 1.90
--
compound: O=C(NCc1ccccc1)c1ccc2c(c1)N=C(c1ccccc1F)c1ccccc1S2 [drawing 1015]
quantity: log10 IC50
number: 1.40
--
compound: O=C(NCc1ccccc1Br)c1ccc2c(c1)N=C(c1ccccc1)c1ccccc1S2 [drawing 700]
quantity: log10 IC50
number: 1.90
--
compound: CCCNC(=O)c1ccc2c(c1)N=C(c1ccc(Br)cc1)c1ccccc1S2 [drawing 1055]
quantity: log10 IC50
number: 1.50
--
compound: O=C(NCc1cccnc1)c1ccc2c(c1)N=C(c1ccc(Cl)cc1)c1ccccc1S2 [drawing 1093]
quantity: log10 IC50
number: 1.50
--
compound: O=C(NCc1cccc(Cl)c1)c1ccc2c(c1)N=C(c1cccc(Cl)c1)c1cc(F)ccc1S2 [drawing 651]
quantity: log10 IC50
number: 0.70

----------
- target desc: UniProtKB P21554
- test summary: CB1 receptor human binding assay ([3H]SR141716A, transfected HEK-293 T membranes)
- setup conditions: human CB1, HEK-293 T membranes, read-out: Binding Human pKi (converted)
Each record here notes measured Ki.

compound: CCCCNC(=O)c1ccc2c(c1)N=C(c1ccc(Cl)s1)c1ccccc1S2 [drawing 1191]
Ki / nM: 0.316
--
compound: O=C(NN1CCCCC1)c1ccc2c(c1)N=C(c1ccc(F)cc1)c1ccccc1S2 [drawing 1207]
Ki / nM: 1.26
--
compound: O=C(NN1CCCCCC1)c1ccc2c(c1)N=C(c1cccc(Cl)c1)c1ccccc1S2 [drawing 1209]
Ki / nM: 1.58
--
compound: O=C(NN1CCCCCC1)c1ccc2c(c1)N=C(c1ccc(Cl)s1)c1ccccc1S2 [drawing 1208]
Ki / nM: 1.58

----------
- target desc: CB1 (mutant) (Homo sapiens)
- test summary: R-SAT functional receptor assay, CB1 (mutant, truncated after amino acid 417)
- Assay type: cell-based
- setup conditions: Appendix A; R-SAT CB1; receptor form (mutant or wild-type) not stated; read-out: pIC50 (converted)
hey, just use 1 (yes) if measured IC50 is less than 0.06 µM, otherwise 0 (no)

compound: CC(CNC(=O)c1ccc2c(c1)N=C(C1CCCCC1)c1ccccc1S2)c1ccccc1 (stereo not drawn) [drawing 783]
category: 1 (yes)
//
compound: CCCC1=Nc2cc(C(=O)N3CCN(c4cc(C)ccc4C)CC3)ccc2Sc2ccccc21
category: 0 (no)
//
compound: CCCCNC(=O)c1ccc2c(c1)N=C(c1ccc(Cl)cc1)c1cc(F)ccc1S2 [drawing 1111]
category: 1 (yes)
//
compound: CCCC1=Nc2cc(C(=O)NC)ccc2Sc2ccccc21
category: 0 (no)
//
compound: CCCC1=Nc2cc(C(=O)NCCN(CC(C)C)CC(C)C)ccc2Sc2ccccc21
category: 0 (no)
//
compound: CCCC1=Nc2cc(C(=O)NCCCN3CCOCC3)ccc2Sc2ccccc21
category: 0 (no)
//
compound: CC(C)NC(=O)c1ccc2c(c1)N=C(c1ccccn1)c1ccccc1S2
category: 0 (no)
//
compound: Cc1ccsc1C1=Nc2cc(C(=O)NCc3ccco3)ccc2Sc2ccccc21 [drawing 855]
category: 1 (yes)
//
compound: CCCCNC(=O)c1ccc2c(c1)N=C(c1ccc(Cl)cc1)c1cc(Cl)ccc1S2 [drawing 556]
category: 1 (yes)

----------
- test summary: Clearance study, liver microsomes (rats)
- setup conditions: rat, pH 7.4
quantity: microsomal CLint at 1 μM (µL/min/mg)

compound: O=C(NCc1cccc(Cl)c1)c1ccc2c(c1)N=C(N1CCC(F)CC1)c1ccccc1S2 [drawing 1714]
quantity: microsomal CLint at 1 μM
unit: µL/min/mg
number: 477
//
compound: O=C(NCc1ccccc1Cl)c1ccc2c(c1)N=C(c1cccc(Cl)c1)c1ccccc1S2 [drawing 1674]
quantity: microsomal CLint at 1 μM
unit: µL/min/mg
number: 48
//
compound: CC(C)CNC(=O)c1ccc2c(c1)N=C(c1ccc(Cl)cn1)c1ccc(Cl)cc1S2 [drawing 1806]
quantity: microsomal CLint at 1 μM
unit: µL/min/mg
number: 135
//
compound: CCCCNC(=O)c1ccc2c(c1)N=C(c1cccc(Cl)c1)c1cc(F)ccc1S2 [drawing 1682]
quantity: microsomal CLint at 1 μM
unit: µL/min/mg
number: 63

----------
This section presents molecules with their documented Hypothermia 3 mg/kg values.
- Test system: NSA mice
- test summary: Hypothermia study (block of CP 55,940-induced hypothermia)
- Format: in vivo
- Set-up: unit not given here
- setup conditions: 3 mg/kg

molecule: COc1cccc(C2=Nc3cc(C(=O)NCCCC(F)(F)F)ccc3Sc3ccccc32)n1 [drawing 1566]
target desc: NSA mice
Hypothermia 3 mg/kg: 46
--
molecule: CCCCNC(=O)c1ccc2c(c1)N=C(c1ccc(F)cn1)c1ccccc1S2 [drawing 1629]
target desc: NSA mice
Hypothermia 3 mg/kg: 54
--
molecule: O=C(NCc1cccc(Cl)c1)c1ccc2c(c1)N=C(N1CCC(F)(F)CC1)c1ccccc1S2 [drawing 1652]
target desc: NSA mice
Hypothermia 3 mg/kg: 19
--
molecule: CCCCNC(=O)c1ccc2c(c1)N=C(c1ccc(Cl)cn1)c1ccccc1S2 [drawing 1595]
target desc: NSA mice
Hypothermia 3 mg/kg: 53
--
molecule: O=C(NCc1cccnc1)c1ccc2c(c1)N=C(c1ccc(F)cc1)c1ccccc1S2 [drawing 1611]
target desc: NSA mice
Hypothermia 3 mg/kg: 28
--
molecule: CC(C)CNC(=O)c1ccc2c(c1)N=C(c1ccc(Cl)cc1F)c1ccccc1S2 [drawing 1576]
target desc: NSA mice
Hypothermia 3 mg/kg: 71
--
molecule: CC(C)CNC(=O)c1ccc2c(c1)N=C(c1ccc(Cl)s1)c1ccc(F)cc1S2 [drawing 1644]
target desc: NSA mice
Hypothermia 3 mg/kg: 12
--
molecule: CCCCNC(=O)c1ccc2c(c1)N=C(c1ccc(Cl)cc1)c1ccccc1[S+]2[O-] (centres unmarked) [drawing 1619]
target desc: NSA mice
Hypothermia 3 mg/kg: 31

----------
In this section we review reported Emax values for a set of compounds.
- target desc: CB1 (mutant) (Homo sapiens, UniProt P21554)
- test summary: R-SAT functional receptor assay, CB1 (mutant, truncated after amino acid 417)
- Assay type: cell-based
- setup conditions: Appendix A; R-SAT CB1; receptor form not stated; relative to SR141716 (100%); read-out: % Inhibition

compound: O=C(NCCC(F)(F)F)c1ccc2c(c1)N=C(c1ccc(F)cc1)c1ccccc1S2 [drawing 827]
Emax (%): 98
//
compound: O=C(NCc1cccnc1)c1ccc2c(c1)N=C(c1ccccc1F)c1ccccc1S2 [drawing 1035]
Emax (%): 114
//
compound: CCCNC1=Nc2cc(C(=O)NN3CCCCC3)ccc2Sc2ccccc21
Emax (%): 89
//
compound: O=C(NCc1ccco1)c1ccc2c(c1)N=C(c1ccccc1Cl)c1ccccc1S2
Emax (%): 95
//
compound: O=C(NCCc1ccncc1)c1ccc2c(c1)N=C(c1ccc(F)cc1)c1ccccc1S2 [drawing 1031]
Emax (%): 94
//
compound: O=C(NNCc1ccccc1)c1ccc2c(c1)N=C(c1ccc(Cl)cc1)c1ccccc1S2
Emax (%): 66
//
compound: CCOC(=O)N1CCC(NC(=O)c2ccc3c(c2)N=C(C2CCCCC2)c2ccccc2S3)CC1 [drawing 814]
Emax (%): 95
//
compound: O=C(NCCc1cccnc1)c1ccc2c(c1)N=C(c1ccc(Cl)s1)c1ccccc1S2 [drawing 1029]
Emax (%): 110
//
compound: CON(C)C(=O)c1ccc2c(c1)N=C(c1ncccc1C)c1ccccc1S2
Emax (%): 0
